System: CCRIS mutagenicity, Ames/micronucleus/aberration tests
Assay: CCRIS mutagenicity studies
Conditions: Test System: AMES SALMONELLA TYPHIMURIUM; Strain/Indicator: TA92; Metabolic Activation: NONE; Method: STANDARD PLATE
Calls of active or inactive are those of the source. The rule behind the calls is not given here.
Labels: label 1 for active, label 0 for inactive

- compound: "N[C@H](CS)C(=O)O"
  category label: "label 0"
- compound: "C=C.CC(N)c1ccccc1.[Cl-].[Cl-].[Pt+2] (configuration not stated)"
  category label: "label 0"
- compound: "CC(O)C(=O)[O][Al]([O]C(=O)C(C)O)[O]C(=O)C(C)O (configuration not stated)"
  category label: "label 0"
- compound: "CC(=O)N[C@@H](CS)C(=O)O"
  category label: "label 0"
- compound: "CC(C)(S)[C@@H](N)C(=O)O"
  category label: "label 1"
- compound: "[Cl][Pt][Cl].c1cc2c3c(c1)CCCN3CCC2"
  category label: "label 0"
- compound: "O=C(O)c1ccccc1[O-].O=C(O)c1ccccc1[O-].O=C(O)c1ccccc1[O-].[Cr+3]"
  category label: "label 0"
